These data points were gathered from patent US20220073496A1.

- target_or_test_system: H1299 cell pAxl (Homo sapiens)
- Construct: endogenous in cells
- Sequence (P30530 26-894): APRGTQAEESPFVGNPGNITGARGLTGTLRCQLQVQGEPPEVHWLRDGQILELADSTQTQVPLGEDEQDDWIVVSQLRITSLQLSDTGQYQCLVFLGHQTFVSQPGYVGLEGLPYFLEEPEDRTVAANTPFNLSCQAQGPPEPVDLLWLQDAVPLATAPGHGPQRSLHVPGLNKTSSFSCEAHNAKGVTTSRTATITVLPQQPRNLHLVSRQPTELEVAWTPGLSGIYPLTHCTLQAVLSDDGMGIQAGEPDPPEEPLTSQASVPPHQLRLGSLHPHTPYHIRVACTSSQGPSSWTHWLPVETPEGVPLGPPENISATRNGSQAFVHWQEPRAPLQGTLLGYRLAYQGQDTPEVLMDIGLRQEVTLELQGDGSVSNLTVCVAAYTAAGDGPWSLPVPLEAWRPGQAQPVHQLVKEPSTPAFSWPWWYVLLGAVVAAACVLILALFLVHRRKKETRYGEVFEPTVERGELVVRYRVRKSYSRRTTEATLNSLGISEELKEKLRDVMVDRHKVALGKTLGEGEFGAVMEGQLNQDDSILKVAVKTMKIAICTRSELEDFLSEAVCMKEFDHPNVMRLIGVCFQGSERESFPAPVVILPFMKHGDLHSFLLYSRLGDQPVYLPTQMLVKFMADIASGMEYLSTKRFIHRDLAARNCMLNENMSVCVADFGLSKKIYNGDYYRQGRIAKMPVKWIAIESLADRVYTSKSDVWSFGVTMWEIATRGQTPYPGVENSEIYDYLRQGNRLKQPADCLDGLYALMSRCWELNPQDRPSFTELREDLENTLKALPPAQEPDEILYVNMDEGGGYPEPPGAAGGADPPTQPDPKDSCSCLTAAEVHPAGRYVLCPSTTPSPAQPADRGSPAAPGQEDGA
- measurement_description: Inhibitory activity on the cell pAxl (Western Blot)
- experimental_conditions: H1299 cells, compound 1.1, 3.3, 10, 30 nM, hGAS6 200 ng/mL
pIC50: −log10 of the molar value.
observation_type: pIC50

| molecule | value_reported |
| --- | --- |
| COc1cc2nccc(Oc3ccc(NC(=O)c4cn(C(C)C)nc(-c5ccc(F)cc5)c4=O)cn3)c2cc1OC [Compound 38] | 8.48 |
| COc1cc2nccc(Oc3ccc(NC(=O)c4cn(C5CC5)nc(-c5ccc(F)cc5)c4=O)cn3)c2cc1OC [Compound 43] | 8.48 |

[I] COc1cc2nccc(Oc3ncc(NC(=O)c4cn(C(C)C)nc(-c5ccc(F)cc5)c4=O)cn3)c2cc1OC [Compound 40]
[II] COc1cc2nccc(Oc3cnc(NC(=O)c4cn(C5CC5)nc(-c5ccc(F)cc5)c4=O)nc3)c2cc1OC [Compound 45]
Query: Response body: label of entry with the larger pIC50; valid values I , II . Kindly state the label of the option you pick.
Result: II
(II: 8.96, I: 8.00)

---

Parameter IC50: see the listing below.
- target_or_test_system: H1299 cell pAxl (Homo sapiens)
- Construct: endogenous in cells; host or cells: H1299
- measurement_description: Inhibitory activity on the cell pAxl (Western Blot)
- Format: cell-based
- experimental_conditions: H1299 cells, compound 1.1, 3.3, 10, 30 nM, hGAS6 200 ng/mL

| compound | IC50 |
| --- | --- |
| COc1cc2nccc(Oc3ccc(NC(=O)c4nn(C(C)C)cc(-c5ccc(F)cc5)c4=O)cn3)c2cc1OC [Compound 29] | < 1.1 nM |
| COc1cc2nccc(Oc3ncc(NC(=O)c4cn(C5CC5)nc(-c5ccc(F)cc5)c4=O)cn3)c2cc1OC [Compound 44] | 3.3 to 10 nM |
| COc1cc2nccc(Oc3ccc(NC(=O)c4nn(C5CC5)cc(-c5ccc(F)cc5)c4=O)cn3)c2cc1OC [Compound 36] | < 1.1 nM |

Query: Query IC50 for COc1cc2nccc(Oc3ccc(NC(=O)c4nn(C5CC5)cc(-c5ccc(F)cc5)c4=O)nc3)c2cc1OC [Compound 31]
Result: < 1.1 nM

Query: Let me know recorded IC50 for COc1cc2nccc(Oc3cnc(NC(=O)c4nn(C5CC5)cc(-c5ccc(F)cc5)c4=O)nc3)c2cc1OC [Compound 33] , thanks.
Result: < 1.1 nM
